# maps each entry to its SPOT signal as a fraction of Bim BH3's signal on the same receptor and array
Molecular target: Bcl-xL, Q07817
Sequence (Q07817 1-209): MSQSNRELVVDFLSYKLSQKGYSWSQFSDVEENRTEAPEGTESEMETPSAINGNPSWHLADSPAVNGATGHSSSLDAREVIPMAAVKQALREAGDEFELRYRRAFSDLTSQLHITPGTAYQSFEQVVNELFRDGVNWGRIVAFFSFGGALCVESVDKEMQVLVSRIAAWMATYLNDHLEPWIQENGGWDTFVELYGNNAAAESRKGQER
Experiment: peptide SPOT array, c-Myc-tagged receptor at 1 uM or 100 nM, anti-c-Myc-Cy3

Example binders with recorded SPOT signal as a fraction of Bim BH3's signal on the same receptor and array:
binder	reported.result
PHQFDGVPDKLIQAAYQVKYNSKKMK [EVI5]	0.69
EEIIHKLAMQDRHIGDNIDHRMVRED [PXT1]	0.02
GSGLHGWAFTLKQFLEMYVAKFAAKG [EEF2]	0.25
QLRLSDAGQYLCQAGDDSNSNKKNAD [PIGR]	0.03
DDMFEPHSWNDKELSDDCFQQWGVRP [PRCP]	0.07

SPOT signal as a fraction of Bim BH3's signal on the same receptor and array for AVLCVECGYKYRFFLEDAEIAARELN [MSH3] is 0.02

Record CGEWTRRSLHDRVLGRQLILPTDKGV [FAM149A] , field SPOT signal as a fraction of Bim BH3's signal on the same receptor and array: 0.91

Lab note: EARVLEEASRLEEEAQQTRLQLQQRL [EVC] gave SPOT signal as a fraction of Bim BH3's signal on the same receptor and array of 0.02

So, EAVTDGLKRALRSFGNALGNCILDKD [RAD52] ? Its SPOT signal as a fraction of Bim BH3's signal on the same receptor and array was 0.15

Noted for TRRSMVFARHLREVLDEFRSRHLNST [POFUT2] : its SPOT signal as a fraction of Bim BH3's signal on the same receptor and array reads 0.74

Hello, the source for this data is paper PMC4072508, in case you need it.
